target-or-system: T1, Znf706 (Homo sapiens, UniProt Q9Y5V0 1-76)
T1 sequence: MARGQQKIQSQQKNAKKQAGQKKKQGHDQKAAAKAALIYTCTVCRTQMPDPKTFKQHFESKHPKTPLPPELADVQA
test-details: fluorescence polarization; 100 mM KCl; range over all G4s; less strong; exact value in figure; FP/anisotropy: 20 mM NaPi, 100 mM KCl, 0.05% NaN3, pH 7.4, 25 C (LiCl variant: 20 mM Tris-HCl, 100 mM LiCl, pH 7.4; NaCl variant: 20 mM NaPi, 100 mM NaCl, pH 7.4); NMR: 20 mM NaPi, 100 mM KCl, 7.5% D2O, pH 7.4, 4-50 C
settings: protein: recombinant; tags: none (His6-SUMO cleaved); chain copies: 2; label: 5' 6-FAM; hybrid G4
assay-readout: Kd

Need Kd, item GGGCGCGGGAGGAAGGGGGCGGG (structured_DNA) [Bcl2WT, 6-FAM]
~4.47 µM
